target: T1, GFP-fused huCB1-SMALP (human, UniProt P21554 1-472); assay: flow cytometry, yeast-displayed Fab, 10 nM CB1 SMALP
T1 construct: Human CB1 fused to GFP in styrene maleic acid lipoparticles, made as in Luna et al. 2018; also called huCB1-GFP-SMALP; GFP-tagged huCB1-SMALP; not shown: GFP fused to huCB1
T1 sequence (P21554 whole entry, the tested form may be a part): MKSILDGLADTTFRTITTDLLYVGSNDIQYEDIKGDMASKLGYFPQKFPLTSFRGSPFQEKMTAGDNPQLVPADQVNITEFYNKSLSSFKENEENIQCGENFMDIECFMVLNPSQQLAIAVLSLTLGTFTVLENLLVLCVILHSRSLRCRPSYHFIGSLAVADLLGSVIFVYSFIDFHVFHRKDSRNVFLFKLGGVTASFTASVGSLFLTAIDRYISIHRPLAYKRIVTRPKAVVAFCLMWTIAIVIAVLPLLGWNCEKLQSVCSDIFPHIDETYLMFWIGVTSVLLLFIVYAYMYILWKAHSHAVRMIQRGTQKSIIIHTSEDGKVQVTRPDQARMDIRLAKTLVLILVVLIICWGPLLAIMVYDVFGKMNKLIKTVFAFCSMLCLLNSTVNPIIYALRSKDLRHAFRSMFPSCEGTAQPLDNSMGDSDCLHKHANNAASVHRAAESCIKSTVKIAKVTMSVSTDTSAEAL
Kindly supply the reported relative binding fold change compared to LIBC523797-1(Fab) values for the records listed here.
Give bare numbers, in fold.

Here are 3 binders together with their reported answers.
Query: Returns the measured relative binding fold change compared to LIBC523797-1(Fab) for the input binder. Input: LIBC673952-1 (Fab on yeast) (Fab, V domains shown, Clone of the Fab-yeast libraries) VH: QVQLQESGPGLVKPSQTLSLTCTVSGGSIRRGGDYWSWIRQHPGKGLEWIGHVYYTGQTTYNPSFRGRVTISVNTYKNQFSLKLSSVTAADTAVYYCARDYDILTGYSYYYYGLDVWGQGTTVTVSS VL: DIVMTQSPLSLPVTPGEPASISCRSSQSLLHRSGYNYLDWYLQKPGQSPQLLIYQGSNRASGVPDRFSGSGSGTDFTLKISRVEAEDVGVYYCRQARALPRTFGQGTKVEIKR
Result: 1.91

Query: Returns the measured relative binding fold change compared to LIBC523797-1(Fab) for the input binder. Input: LIBC674090-1 (Fab on yeast) (Fab, V domains shown, Clone of the Fab-yeast libraries) VH: QVQLQESGPGLVKPSQTLSLTCTVSGGSIRRGGDYWSWIRQHPGKGLEWIGHIYYAGSTAYNPNFRGRVRISVNTYKNQFSLKLSSVTAADTAVYYCARGYDTSGYSYYYYGLDVWGQGTTVTVSS VL: DIVMTQSPLSLPVTPGEPASISCRSSQSLLHRSGYNYLDWYLQKPGQSPQLLIYQGSNRASGVPDRFSGSGSGTDFTLKISRVEAEDVGVYYCMQSLQTPRTFGQGTKVEIKR
Result: 2.85

Query: Returns the measured relative binding fold change compared to LIBC523797-1(Fab) for the input binder. Input: LIBC674200-1 (Fab on yeast) (Fab, V domains shown, Original clone of the Fab-yeast libraries, without the LC G76D reversion) VH: QVQLQESGPGLVKPSQTLSLTCTVSGGSIRRGGDYWSWIRQHPGKGLEWIGHVYYTGQTAYNPNFRNRVRISVNTYKNQFSLKLSSVTAADTAVYYCARGYDVSGYSYYYYGMDVWGQGTTVTVSS VL: DIVMTQSPLSLPVTPGEPASISCRSSQSLLHRSGYNYLDWYLQKPGQSPQLLIYLGSNRASGVPGRFSGSGSGTDFTLKISRVEAEDVGVYYCMQSLQTPRTFGQGTKVEIKR
Result: 3.31

Switching to the query record.
Query: Returns the measured relative binding fold change compared to LIBC523797-1(Fab) for the input binder. Input: LIBC674229-1 (Fab on yeast) (Fab, V domains shown, Clone of the Fab-yeast libraries) VH: QVQLQESGPGLVKPSQTLSLTCTVSGGSIRRGGDYWSWIRQHPGKGLEWIGHIYQTGQTKYNPSFKGRVRISVNTYKNQFSLKLSSVTAADTAVYYCARGYDVSGYSYYYYGMDVWGQGTTVTVSS VL: DIVMTQSPLSLPVTPGEPASISCRSSQSLLHRSGYNYLDWYLQKPGQSPQLLIYQGSNRASGVPDRFSGSGSGTDFTLKISRVEAEDVGVYYCMQSLQTPRTFGQGTKVEIKR
Result: 3.17
